target: T1, CH2-4 constant domains of human IgE linked to a transmembrane protein, on 293 cells (human, UniProt P01854-1 104-428); test: flow cytometry, 293 cells expressing human IgE CH2-4
T1 construct: domain: CH2-4 constant domains; also called human IgE-expressing 293 cells
T1 sequence (P01854 other isoform, or with tags, fused parts or gaps): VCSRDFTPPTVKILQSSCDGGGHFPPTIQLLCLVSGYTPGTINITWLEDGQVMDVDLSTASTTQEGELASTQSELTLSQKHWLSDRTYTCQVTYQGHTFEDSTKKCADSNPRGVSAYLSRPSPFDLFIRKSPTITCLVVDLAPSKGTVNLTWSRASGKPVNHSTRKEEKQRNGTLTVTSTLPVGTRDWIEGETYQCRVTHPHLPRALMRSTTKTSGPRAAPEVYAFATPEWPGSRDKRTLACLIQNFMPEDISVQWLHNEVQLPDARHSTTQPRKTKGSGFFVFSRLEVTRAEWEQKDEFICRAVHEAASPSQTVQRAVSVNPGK
MEASURED PARAMETER: Kd (nM)
Expressed in nM, but write only the number.

Tell us which Kd value is on record for hzB10v7-NNT (Fc fusion, monomeric) VHH-Fc: EVQLVQSGGELVQAGGSLRLSCVASGLTFSSYNMGWLRQAPGKEREFVGLSGSSSTSTYYADSVKGRFTISRDNSKNTVYLQMNSLKPEDTAVYYCAARRMLSTYWSDRSWDFWGQGTQVTVKPGGPSVFLFPPKPKDTLMISRTPEVTCVVVDVSHEDPEVKFNWYVDGVEVHNAKTKPREEQYNSTYRVVSVLTVLHQDWLNGKEYKCKVSNKALPAPIEKTISKAKGQPREPQVYTLPPSRDELTKNQVNLTCLVKGFYPSDIAVEWESNGQPENNYKTTPPVLDSDGSFFLNSTLTVDKSRWQQGNVFSCSVMHEALHNHYTQKSLSLSPGK
3.71
